- System: SF-268 CNS
- test-summary: NCI tumour cell line growth inhibition, 48 h
readout-name: GI50

// returns GI50 for "COc1cc(N2CCC(N3CCN(C)CC3)CC2)ccc1Nc1ncc(Cl)c(Nc2ccccc2P(C)(C)=O)n1" with SF-268 CNS; value = 1340 nM

Entry "COc1cc2[nH]c(C(=O)c3cc(OC)c(OC)c(OC)c3)c(N)c2cc1C#CCO" under SF-268 CNS had GI50 of 957 nM

Noted GI50 for "CCCCCCCCCCCCCOC(=O)c1c(C)[nH]c(/C=C2\N=C(c3ccc[nH]3)C=C2OC)c1C" , tested on SF-268 CNS: 109 nM

# value of GI50, SF-268 CNS, item Nc1nc(N)c2nc(CNc3ccc(C(=O)CC(CCC(=O)O)C(=O)O)cc3)cnc2n1 (stereo not given) = 197 nM

Measured GI50 for this entry "CCc1ccc(C2=C/C(=C/c3ccc(Cl)cc3)C(=O)N2CCc2ccc(S(N)(=O)=O)cc2)cc1" on SF-268 CNS: 4630 nM

# value of GI50, SF-268 CNS, item "O=c1ncc(-c2ccc(C(F)(F)F)cc2)c(NC2CCCCCC2)[nH]1" = 18400 nM

Observed GI50 on SF-268 CNS, entry "CC(=O)[CH-]C(=O)c1ccccc1.CC(=O)[CH-]C(=O)c1ccccc1.O=C([O-])C[O-].O=C([O-])C[O-].[Ti+4]" , equals > 100000 nM

Short answer on SF-268 CNS for "COc1cccc(-c2nn(-c3ccccc3)cc2-c2ccnc(NCCNS(=O)(=O)c3ccc(C(F)(F)F)cc3)c2)c1" , GI50: 3540 nM

Log: SF-268 CNS, molecule "COc1cc2c(c(OC)c1OC)-c1ccc([O-])c(=O)cc1[C@@H](NC(C)=O)CC2.COc1cc2c(c(OC)c1OC)-c1ccc([O-])c(=O)cc1[C@@H](NC(C)=O)CC2.[Cu+2]" , GI50 = 3890 nM

Simply: "Cc1ccc(-c2csc(N(C(=O)N3CCN(c4cc5c(cc4F)c(=O)c(C(=O)O)cn5C4CC4)CC3)c3ccccc3)n2)cc1" , SF-268 CNS, GI50 = 432 nM

Entry "O=c1oc2ccc(Cl)cc2c(=O)n1-c1ccc(Cl)cc1F" : GI50 on SF-268 CNS = 419 nM

The molecule "COc1ccc(OC)c(/C=C/c2nnc(Nc3ccc(Cl)cc3)o2)c1" on SF-268 CNS: GI50 was 7600 nM

Field GI50 (SF-268 CNS), entry "Cc1cc(NC(=O)c2ccc(NS(=O)(=O)CCO)cc2N2CCC3(CC2)CC3)nc(N2CCC(F)(F)CC2)n1" : 13100 nM

Bench note, SF-268 CNS: entry CCN1C(=O)N(CC)C2C1NN=c1s/c(=C3\C(=O)N(CCC(C)C)c4ccccc43)c(=O)n12 (stereo not given) , its GI50 = 2800 nM

I looked up "C[C@H](c1ccc(Cl)cc1N)N1C(=O)c2cc(I)ccc2N(CCCN2CCN(C)CC2)C(=O)[C@@H]1c1ccc(Cl)cc1" and its GI50 for SF-268 CNS was 1700 nM
